Catalogue of CC50 readings, one per entry.
assay.remarks: Cytotoxicity, CellTiter-Glo cell viability assay in HFF cells
applied.conditions: human, human foreskin fibroblast (HFF) cell monolayers, CC50, HFF cells, run with AdV5 assay; average and SD from five independent experiments
Excerpt: Human foreskin tissue was obtained from the University of Alabama at Birmingham tissue procurement facility with approval from the Institutional Review Board. […] The culture medium was then replaced with fresh medium and condition of the cells was monitored daily until a confluent cell monolayer was formed. […]

Example results:
INSERT INTO assay_data (chemical_smiles, reported_value) VALUES
  ('Nc1nc(O)c2ncn(COC(CO)CO)c2n1', '> 100 µM'),
  ('O=c1[nH]c(=O)n([C@H]2C[C@H](O)[C@@H](CO)O2)cc1I', '> 100 µM');

Then this molecule:
For CCCCCCCCCCCCCCCCOCCCOP(=O)(O)CO[C@H](CO)Cn1ccc(N)nc1=O , what is its reported CC50?
0.83 µM
